The following binders are listed with their measured pEC50 values.
- TGT: human CD73 on the cell surface (293T/17-huCD73 cells) (human) (UniProt P21589)
- Sequence (P21589 27-549): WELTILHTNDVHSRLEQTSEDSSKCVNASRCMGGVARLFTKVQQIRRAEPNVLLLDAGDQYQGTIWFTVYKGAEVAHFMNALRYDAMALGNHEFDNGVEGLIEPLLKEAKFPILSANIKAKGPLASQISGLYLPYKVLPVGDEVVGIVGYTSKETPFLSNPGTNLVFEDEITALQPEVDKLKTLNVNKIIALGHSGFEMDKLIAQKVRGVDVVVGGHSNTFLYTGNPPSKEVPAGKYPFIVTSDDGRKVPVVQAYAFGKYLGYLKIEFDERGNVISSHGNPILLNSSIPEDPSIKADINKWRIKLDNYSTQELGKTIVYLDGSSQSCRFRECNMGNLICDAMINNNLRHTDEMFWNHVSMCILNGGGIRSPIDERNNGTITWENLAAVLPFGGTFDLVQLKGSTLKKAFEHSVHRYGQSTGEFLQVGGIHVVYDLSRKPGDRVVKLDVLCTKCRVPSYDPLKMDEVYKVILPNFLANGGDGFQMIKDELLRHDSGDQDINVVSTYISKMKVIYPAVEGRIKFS
- TEST_METHOD_NOTES: flow cytometry on 293T/17-human CD73 cells
# pEC50: negative log10 of molar concentration; output just the value

Sample records with pEC50:
binder="JB94H3L3 (antibody, human IgG1, kappa, V domains shown) VH: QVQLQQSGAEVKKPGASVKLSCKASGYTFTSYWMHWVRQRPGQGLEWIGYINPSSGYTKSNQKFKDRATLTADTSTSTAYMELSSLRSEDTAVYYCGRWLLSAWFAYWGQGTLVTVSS VL: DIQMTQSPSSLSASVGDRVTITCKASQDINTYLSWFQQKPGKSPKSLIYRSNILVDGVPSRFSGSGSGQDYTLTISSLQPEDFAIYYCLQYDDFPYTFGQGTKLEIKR" reported_value=7.82
binder="JB94H2L1 (antibody, human IgG1, kappa, V domains shown) VH: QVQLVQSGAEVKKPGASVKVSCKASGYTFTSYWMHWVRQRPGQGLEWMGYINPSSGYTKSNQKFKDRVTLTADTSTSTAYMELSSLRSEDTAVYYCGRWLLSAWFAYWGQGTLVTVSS VL: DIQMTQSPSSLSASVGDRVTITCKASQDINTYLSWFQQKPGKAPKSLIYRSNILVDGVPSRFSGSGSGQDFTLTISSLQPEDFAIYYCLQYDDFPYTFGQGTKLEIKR" reported_value=8.04

### Prompt Data request, read-out pEC50, for JB24Chi (antibody, human IgG1, kappa, V domains shown) VH: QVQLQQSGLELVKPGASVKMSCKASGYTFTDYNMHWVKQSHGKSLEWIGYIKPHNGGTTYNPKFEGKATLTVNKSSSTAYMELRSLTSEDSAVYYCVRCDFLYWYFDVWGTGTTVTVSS VL: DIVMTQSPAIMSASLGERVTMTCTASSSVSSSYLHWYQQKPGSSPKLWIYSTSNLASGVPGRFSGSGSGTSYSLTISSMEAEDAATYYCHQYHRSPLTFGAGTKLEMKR
### Response 8.27

// provenance: patent US20220064322A1
